System: MILI (PIWIL2) piRISC loaded with L1MC piRNA (26 nt);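 also: 1 nM active piRISC with 0.1 nM target library at 33 °C single turnover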
Experiment: pre-steady-state target cleavage rate (min^-1); guide: L1MC piRNA 5'p-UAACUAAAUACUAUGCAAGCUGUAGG; higher = faster piRNA-guided slicing of the target
Conditions: auxiliary factor: 500 nM mouse GTSF1
Assign class by pre-steady-state target cleavage rate: not lower than 0.1 means criterion met; lower than 0.1 means criterion not met.

| Sequence Chain | Label Class |
| --- | --- |
| UCCUGGAACAGCUUGCAUAAGUAUUUAGUUA | criterion not met |
| UCCUGGAACAGCAUGCAUAGUAUUUACAAA | criterion met |
| UCCUGGAUGUGCUUGCAUAGUAUUUAUGUUA | criterion met |
| UCCUGGAACAGCUAGCAUUGUAUUUAGUUA | criterion met |
| UCCUGCUACAGCUUGCAUAGUAUUUACUAA | criterion met |
| UCCUGCUACAGCAUGCAUACUAUUUAGUUA | criterion met |
| UCCUCGUUCAGCUUGCAUAGUAUUUAGUUA | criterion met |
| UCCUGGAUGUGCUUGGAUUGUAUUUAGUUA | criterion not met |
| UCCUGGUACAGCUUGCAUAGUAAAUAGAAA | criterion not met |
| UCCUGGAUGAUGCUUGCAUAGUAUUUAGUUA | criterion met |
| UCCUGGAACAGCUUGCUUAGAAUUUAGUUA | criterion not met |
| UCCUGGAUGAGCUUGGUUAGUAUUUAGUAA | criterion met |
| UCCUGGAUGUCCUUGCAUAGUAUAUAGUAA | criterion not met |

---

Reported pre-steady-state target cleavage rate values are given for each entry in this list.
Test system: MILI (PIWIL2) piRISC loaded with L1MC piRNA (26 nt);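 also: 1 nM active piRISC with 0.1 nM target library at 33 °C single turnover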
Experiment: pre-steady-state target cleavage rate (min^-1); guide: L1MC piRNA 5'p-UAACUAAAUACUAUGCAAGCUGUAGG; higher = faster piRNA-guided slicing of the target
Conditions: auxiliary factor: none (no GTSF1)

| Sequence Chain | pre-steady-state target cleavage rate |
| --- | --- |
| UCCUGCUUCAGCUUGCAUAGUAUUAAGUUA | 0.00279 |
| UCCUGGAUCAGCUUGCAUAGUAUUUAGUA | 0.00426 |
| UCCUGGAACAGCUUGAAUAGUAUUUAGUUA | 0.00657 |
| UCCUGGUAGAGCUUGCAUAGUAUUAAGUUA | 0.00672 |
| UCCUCCUAUAGCUUGCAUAGUAUUUAGUUA | 0.00658 |
| UCCUGCUACAGCUUGCAUAGUAUUUAGUGA | 0.00299 |
| UCCUGCUACAGCUUGCAAAGUAUUUAGUUA | 0.00686 |
| UCCUGGUACAGCAUGCAUAGUAUUAAGUUA | 0.0046 |
| UCCUGGAUGUCGAAGCAUAGUAUUUAGGUUA | 0.00259 |
| UCCUGGAUGUCCCUGCAUAGUAUUUAGUUA | 0.00467 |
| UCCUGGUACAGGCUUGCAUAGUAUUUAGUUA | 0.0131 |
| UCCUGGAACACGAUGCAUAGUAUUUAGUAA | 0.00313 |
| UCCUGGAUCAGCUUGGAAAGUAUUUAGUUA | 0.00552 |

---

System: MILI (PIWIL2) piRISC loaded with L1MC piRNA (26 nt);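 also: 1 nM active piRISC with 0.1 nM target library at 33 °C single turnover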
Assay: pre-steady-state target cleavage rate (min^-1); guide: L1MC piRNA 5'p-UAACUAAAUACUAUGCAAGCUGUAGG; higher = faster piRNA-guided slicing of the target
Details: auxiliary factor: 500 nM mouse GTSF1
pre-steady-state target cleavage rate for assorted sequences

| Sequence Chain | pre-steady-state target cleavage rate |
| --- | --- |
| UCCUGGAACAGCUUCCAUAGUAUUUAGUUA | 0.0612 |
| UCCUGCUUCAGCUUGCAUAGUAAUUAGUUA | 0.253 |
| UCCUGCUGACAGCUUGCAUAGUAUUUAGUUA | 0.327 |
| UCCUGGAUGAGCUUGCUUAGUUUUUAGUUA | 0.0134 |
| UCCUGGAUCAGCUUGCAAAGUAUUAAGUUA | 0.119 |
| UCCUGGAUCAGCUUGCUUAGUAUUUUGUUA | 0.16 |
| UCCUGGAAGUCCUUGCAUAGUAUUUACAAA | 0.0598 |
| UCCUGGAUCAGGAUGCAUAGUAUUUACAAA | 0.0127 |
| UCCUGGAACAGCUUGCAUUGUAUUUAGAUA | 0.149 |
| UCCUCCUCACAGCUUGCAUAGUAUUUAGUUA | 0.369 |
| UCCUGGAUCAGGUUGCAUAGUAUUUACAAA | 0.0312 |
| UCCUGGAUCAGCUUGCAUAGUAUAUAGUAA | 0.189 |
| UCCUGGAUGUCCGUGCAUAGUAUUUAGUUA | 0.0403 |
| UCCUGGAUGAGCUUGCAUAGUCUUUAGUUA | 0.0764 |
| UCCUCCUACAGCAAGCAUAGUAUUUAGAAA | 0.217 |
| UCCUGGUACACCUUGCUUAGUAUUUAGUUA | 0.134 |
| UCCUGGUAGAGCUUGCAUAGUAUUUAGUUA | 0.245 |
| UCCUCCUACAGCUUGCAUACUAUUUACAAA | 0.0449 |
| UCCUGGAUGUGCUUGCAAUAGUAUUUAGUUA | 0.00398 |
| UCCUGGUACAGCUUGGAAAGUAUUUAGUUA | 0.111 |
| UCCUCCUACAGCUUGCAUAGAUUUUAGUUA | 0.0522 |
| UCCUGGAUGUCGUGUGCAUAGUAUUUAGUUA | 0.102 |
| UCCUGGAUGUGCUUGCAUAGUAUUUAGUUA [g2:g20:cont:t1A] | 0.142 |
| UCCUGCUACAGCUUGCAUAGAAUUUAGAUA | 0.0657 |
| UCCUGGAUGUGCUUGCAUAGUAUUGAGUUA | 0.0612 |
| UCCUGGAUGUGCUUGGAUAGUAUUAAGUUA | 0.0647 |
| UCCUGCUGCAGCUUGCAUAGUAUUUAGUUA | 0.331 |

---

System: EfPiwi piRISC loaded with L1MC piRNA (26 nt)
Test: pre-steady-state target cleavage rate (min^-1); auxiliary factor: 500 nM Ephydatia muelleri Gtsf1; guide: L1MC piRNA 5'p-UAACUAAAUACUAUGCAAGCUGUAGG; MIWI and MILI are mouse PIWI proteins and EfPiwi is from a freshwater sponge; tags in brackets are library labels; higher = faster piRNA-guided slicing of the target

| Sequence Chain | Sign | pre-steady-state target cleavage rate |
| --- | --- | --- |
| UCCUGGAUGUCGAACGUAUGUAUUUAGAUUA | < | 0.0001 |
| UCCUGCUACAGCUAGCAAAGUAUUUAGUUA | = | 0.0328 |
| UCCUGGAUGAGCAUGCAUAGUAUUUAGUAA | = | 0.00596 |
| UCCUGGUCCAGCUUGCAUAGUAUUUAGUUA | = | 0.0262 |
| UCCUCCUACUGCUAGCAUAGUAUUUAGUUA | = | 0.0131 |
| UCCUCCUACAGCAUGCAUAGUAUUAAGUUA | = | 0.00654 |
| UCCUGGAUGAGCCUGCAUAGUAUUUAGUUA | = | 0.032 |
| UCCUCCUACAGCUUGCAUAGUAUUUAGGUA | = | 0.00476 |
| UCCUCCUACAGCUAGCAUAGUAUAUAGUUA | = | 0.00495 |
| UCCUGGAUGUCGUAUGCAUAGUAUUUAGUUA | = | 0.00476 |
| UCCUGGAUGAGCUUCGCAUAGUAUUUAGUUA | = | 0.0219 |
| UCCUGCUACAGGUUGCAUUGUAUUUAGUUA | = | 0.00597 |
| UCCUGGAUGAGCUAUGCAUAGUAUUUAGUUA | = | 0.0256 |
